system.tested: T1, matriptase (#3946-SE-010, R&D Systems) (UniProt Q9Y5Y6 615-855)
T1 sequence (looked up): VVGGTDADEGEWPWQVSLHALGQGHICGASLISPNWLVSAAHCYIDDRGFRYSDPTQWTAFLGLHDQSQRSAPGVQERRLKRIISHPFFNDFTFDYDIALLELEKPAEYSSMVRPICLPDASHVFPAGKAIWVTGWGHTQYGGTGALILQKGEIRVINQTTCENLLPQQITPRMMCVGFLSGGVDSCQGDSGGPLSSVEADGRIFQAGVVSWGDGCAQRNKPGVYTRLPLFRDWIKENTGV
experimental.protocol: cell-based or functional assay
Non-standard residues stand in square brackets, D forms with d. Primed or numbered codes have the meaning given here. *: point of attachment. X10 = 1‑((2,4-dinitrophenyl)sulfonyl)piperidin‑4‑yl carbamate, O=C(OC1CCN(S(=O)(=O)c2ccc([N+](=O)[O-])cc2[N+](=O)[O-])CC1)*; X11 = 1‑((3-fluorophenyl)sulfonyl)piperidin‑4‑yl carbamate, O=C(OC1CCN(S(=O)(=O)c2cccc(F)c2)CC1)*; X8 = 1‑((4-chlorophenyl)sulfonyl)piperidin‑4‑yl carbamate, O=C(OC1CCN(S(=O)(=O)c2ccc(Cl)cc2)CC1)*; X13 = 1‑((2-fluorophenyl)sulfonyl)piperidin‑4‑yl carbamate, O=C(OC1CCN(S(=O)(=O)c2ccccc2F)CC1)*; X4 = 1‑(phenylsulfonyl)piperidin‑4‑yl carbamate, O=C(OC1CCN(S(=O)(=O)c2ccccc2)CC1)*; X3 = 4‑benzylpiperidin‑4‑yl carbamate, O=C(OC1(Cc2ccccc2)CCNCC1)*; X1 = 4‑phenylpiperidin‑4‑yl carbamate, O=C(OC1(c2ccccc2)CCNCC1)*; X7 = 1‑acetylpiperidin‑4‑yl carbamate, CC(=O)N1CCC(OC(=O)*)CC1; kbt″ = ketobenzothiazole (C-terminal Arg), c1ccc2sc(*)nc2c1; kbt = C-terminal Arg ketobenzothiazole; Cha = N[C@@H](CC1CCCCC1)C(=O)O
observation.type: Matriptase IC50 (nM)
Answers are plain numbers, in nM.

Reference set (6 entries):
>  <binder>
X13-Leu-Arg-kbt [1-((2-fluorophenyl)sulfonyl)piperidin-4-yl Leu-Arg-kbt carbamate (8g)]

>  <Matriptase IC50 / nM>
4500

$$$$
>  <binder>
X4-Leu-Arg-kbt [1-(phenylsulfonyl)piperidin-4-yl Leu-Arg-kbt carbamate (8f)]

>  <Matriptase IC50 / nM>
810

$$$$
>  <binder>
X10-Leu-Arg-kbt [1-((2,4-dinitrophenyl)sulfonyl)piperidin-4-yl Leu-Arg-kbt carbamate (8k)]

>  <Matriptase IC50 / nM>
10000

$$$$
>  <binder>
X11-Leu-Arg-kbt [1-((3-fluorophenyl)sulfonyl)piperidin-4-yl Leu-Arg-kbt carbamate (8j)]

>  <Matriptase IC50 / nM>
7500

$$$$
>  <binder>
X1-[Cha]-Arg-{kbt″} [4-phenylpiperidin-4-yl Cha-Arg-kbt carbamate (8d)]

>  <Matriptase IC50 / nM>
2100

$$$$
>  <binder>
X7-Leu-Arg-kbt [1-acetylpiperidin-4-yl Leu-Arg-kbt carbamate (8e)]

>  <Matriptase IC50 / nM>
640

$$$$

Would you mind giving Matriptase IC50 for every binder in the list below?
1. {2‑phenyl‑1‑(piperidin-4-yl)ethyl carbamate}-Leu-Arg-kbt [2-phenyl-1-(piperidin-4-yl)ethyl Leu-Arg-kbt carbamate (11b)]
2. X8-Leu-Arg-kbt [1-((4-chlorophenyl)sulfonyl)piperidin-4-yl Leu-Arg-kbt carbamate (8i)]
3. {phenyl(piperidin-4-yl)methyl carbamate}-Leu-Arg-kbt [phenyl(piperidin-4-yl)methyl Leu-Arg-kbt carbamate (11a)]
4. X3-Leu-Arg-kbt [4-benzylpiperidin-4-yl Leu-Arg-kbt carbamate (8b)]

Key:
[20, 2400, 1100, 30]
